- Test system: HeLa
- Experimental Protocol: Cytotoxicity against human HeLa cells incubated from day 2 to day 4 by CCK8 assay
- Type: functional, cell-based
pIC50: −log10 of the molar value.
Experimental Readout: pIC50

molecule_smiles=Oc1cccc(-c2cc(-c3ccccn3)c3c(n2)-c2ccccc2C3)c1 experimental_readout=pIC50 qual== recorded_measurement=5.51
molecule_smiles=Oc1ccc(-c2cc(-c3cccs3)c3c(n2)-c2ccccc2C3)cc1 experimental_readout=pIC50 qual=< recorded_measurement=4.30
molecule_smiles=Oc1ccccc1-c1cc(-c2ccsc2)c2c(n1)-c1ccccc1C2 experimental_readout=pIC50 qual=< recorded_measurement=4.30
molecule_smiles=c1ccc(-c2cc(-c3ccco3)c3c(n2)-c2ccccc2C3)cc1 experimental_readout=pIC50 qual== recorded_measurement=5.85
molecule_smiles=Oc1ccccc1-c1cc(-c2ccncc2)c2c(n1)-c1ccccc1C2 experimental_readout=pIC50 qual=< recorded_measurement=4.30
